Where these numbers come from: patent US6855843B2

melting point: recorded values
readout: melting point

# compound, result
data = [
    ("O=C(N[C@@H](Cc1ccc(-c2c(OCC(F)(F)F)cccc2OCC(F)(F)F)cc1)C(=O)O)c1c(Cl)cccc1Cl", "93 to 94 °C"),
    ("CCCc1cc(OC)c(-c2ccc(C[C@H](NC(=O)c3c(Cl)cccc3Cl)C(=O)O)cc2)c(OC)c1", "238 to 239 °C (dec.)"),
    ("COc1ccc(OC)c(-c2ccc(C[C@H](NC(=O)c3c(Cl)cccc3Cl)C(=O)O)cc2C(C)O)c1OC (stereo partly drawn)", "121 to 123 °C"),
]
